# measured_on: Syk catalytic domain (aa 356-635 with a C-terminal His-tag) (Homo sapiens, UniProt P43405)
# Construct: His-tag (C); made in house
# method: In vitro Syk kinase activity measured by trFRET, Syk catalytic domain
# Type: biochemical
# test_parameters: Syk catalytic domain (aa 356-635), trFRET, 0.001 mM ATP
metric: IC50

// below: answered compounds
{"compound": "CN(C)CC1CCN(c2nc(-c3ccc(S(C)(=O)=O)cc3)c3cnc4[nH]ccc4n23)C1 (stereo not drawn)", "metric": "IC50", "experimental_value": "1000 to 10000 nM"}
{"compound": "CCc1c[nH]c2ncc3c(-c4ccc(S(N)(=O)=O)cc4)nn(C)c3c12", "metric": "IC50", "experimental_value": "100 to 1000 nM"}
{"compound": "Cn1ncc2cnc3[nH]c(-c4ccncc4)cc3c21", "metric": "IC50", "experimental_value": "100 to 1000 nM"}
{"compound": "CC(C)n1cc(-c2cc3c(ncc4cnn(C)c43)[nH]2)c2ccccc21", "metric": "IC50", "experimental_value": "100 to 1000 nM"}

// CC(C)(O)c1ccc(-c2nc(C3CCCCC3)n3c2cnc2[nH]ccc23)cc1 : IC50 value = < 100 nM

// CN1CCN(C(=O)Cn2cccc2-c2cc3c(ncc4cnn(C)c43)[nH]2)CC1 : IC50 value = > 10000 nM
